target: polyclonal IgG (Gammanorm, Octapharma, Sweden); test: SPR (Biacore 8K+), 1:1 kinetic fit; summary table, differs from Table 10
endpoint.label: Kd (nM)

1: pAM245 (Protein L C3 domain; H, H, Q at positions 10, 45, 60) (designed binder) PKEEVTIKVHLIFADGKIQTAEFKGTFEEATAKAYAYANLLAKEHGEYTADLEDGGNTIQIKFAGKETPETPEE
2: pAM246 (Protein L C3b domain; N10H, N45H, N60Q) (designed binder) PKEEVTIKVHLIFADGKIQTAEFKGTFEEATAKAYAYADLLAKEHGEYTADLEDGGYTIQIKFAGKETPETPEE
Between 1 and 2 , which one shows the smaller Kd number? Reply with the label of the item you choose.
2
